Data origin: patent US8247211B2

- Tested on: Staphylococcus sp.
- Method notes: In vitro antibacterial evaluation: minimum inhibitory concentration (MIC), broth dilution method
- Type: cell-based
- Cond: broth dilution, 5×10^5 CFU/mL, 18 hours at 35° C.
Below, each of the molecules is paired with its reported MIC Staphylococcus aureus (GC 1131) value.
Please respond with the number in µg/mL and leave the unit unwritten.

**Query** Please look up its MIC Staphylococcus aureus (GC 1131): CSc1ccc(C2OCC3OC(OC4C(CO)OC(Oc5ccc(CC6NC(=O)C(C(C)c7ccccc7)NC(=O)CNC(=O)C(CO)NC(=O)C(C(O)C7CNC(=N)N7C7OC(CO)C(O)C(O)C7O)NC(=O)C(C(O)C7CNC(=N)N7)NC6=O)cc5)C(O)C4O)C(O)C(O)C3O2)cc1 (stereo not drawn)
**Result** 1

**Query** Thanks! And COc1cc(OC)cc(C2OC3C(OC4C(CO)OC(Oc5ccc(CC6NC(=O)C(C(C)c7ccccc7)NC(=O)CNC(=O)C(CO)NC(=O)C(C(O)C7CNC(=N)N7C7OC(CO)C(O)C(O)C7O)NC(=O)C(C(O)C7CNC(=N)N7)NC6=O)cc5)C(O)C4O)OC(CO)C(O)C3O2)c1 (stereo not drawn) [Example 150a] ?
**Result** 32
